Where these numbers come from: paper PMC7775634

Target: Cdc15 F-BAR domain (E30K E152K) (Schizosaccharomyces pombe, UniProt Q09822, E152K/E30K)
Sequence (Q09822 19-312 E30K/E152K): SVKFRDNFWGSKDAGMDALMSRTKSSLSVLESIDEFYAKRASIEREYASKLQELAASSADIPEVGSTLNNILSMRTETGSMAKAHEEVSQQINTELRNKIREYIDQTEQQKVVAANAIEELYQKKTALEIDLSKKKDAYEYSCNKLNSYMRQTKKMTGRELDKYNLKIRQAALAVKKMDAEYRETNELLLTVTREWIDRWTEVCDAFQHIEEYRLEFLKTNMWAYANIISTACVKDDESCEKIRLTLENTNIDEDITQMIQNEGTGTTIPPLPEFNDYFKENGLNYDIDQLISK
Assay: Isothermal titration calorimetry
Type: binding, S. pombe
Ends that are not written are not given here.

>  <recordSequence>
TPTPSARRTIGPRAPKSKTTY [Cdc12 peptide]

>  <Kd [µM]>
5

$$$$
